subject of test: T1, ZFP SBS#887 (synthetic)
T1 chain: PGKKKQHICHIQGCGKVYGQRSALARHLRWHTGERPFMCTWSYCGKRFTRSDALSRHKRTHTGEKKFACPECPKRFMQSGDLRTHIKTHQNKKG
assay comment: EMSA
assay context: tags: MBP fusion
measured parameter: pKd
Interpret pKd as the negative base-10 log of the concentration measured in mol/L.

Challenge: Field request: pKd | item: TCAGTGGTAT (dsDNA) DNA 1: TCAGTGGTAT DNA 2: ATACCACTGA
Response given: 7.62
